- targetOrSystem: T1, NativeRPtag(large)_with_Tags_and_Cys (Thermoanaerobacter tengcongensis)
- T1 construct: Unlabeled in anisotropy assays; coupled through the engineered N-terminal Cys to SulfoLink agarose or maleimide plates in column, pull-down and ELISA assays
- T1 chain: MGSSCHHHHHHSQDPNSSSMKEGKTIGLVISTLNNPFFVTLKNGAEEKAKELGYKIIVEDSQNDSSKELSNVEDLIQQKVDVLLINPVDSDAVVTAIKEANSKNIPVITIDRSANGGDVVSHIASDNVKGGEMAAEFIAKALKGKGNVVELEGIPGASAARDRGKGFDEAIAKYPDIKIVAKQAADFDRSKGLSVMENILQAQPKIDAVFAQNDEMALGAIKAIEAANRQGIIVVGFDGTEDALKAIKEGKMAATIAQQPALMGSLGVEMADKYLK
- methodDescription: fluorescence anisotropy, association kinetics
No end group written: not given here. *: point of attachment. RhodamineB = CCN(CC)c1ccc2c(-c3ccccc3C(=O)*)c3ccc(=[N+](CC)CC)cc-3oc2c1
metric: kr (S* to S)
Write the numeric value and follow it with the unit.

Check out these entries, answers already filled in.
RhodamineB-GEKAPNFIPAELKLITKENVQ [RPtag(small) i4a] = 0.098 min⁻¹
RhodamineB-GEKIPNFIPAELKLITKE [RPtag(small) Cd3] = 0.045 min⁻¹
RhodamineB-KIANFIPAELKLITKANAA [RPtag(small) Nd2, p5a, e18a, v20a, q21a] = 0.14 min⁻¹
RhodamineB-KIPNFIPAELKLITKANVQ [RPtag(small) Nd2, e18a] = 0.13 min⁻¹
RhodamineB-KIPNFIPAELKLITKE [RPtag(small) Nd2, Cd3] = 0.14 min⁻¹

# per-item lookup of kr (S* to S); items listed below
1. RhodamineB-EKIPNFIPAELKLITKENVQ [RPtag(small) Nd1]
2. RhodamineB-GEKIPNAIPAELKLITKENVQ [RPtag(small) f7a]

["0.024 min⁻¹", "0.036 min⁻¹"]
